experiment: Lipophilicity, logD of the compound at pH 7.4 by chromatographic method; type: physicochemical; conditions: buffer
Assignment: determine reported chromatographic logD for the given compounds.
One number for each entry.

[[record]]
smiles_str = "CCc1cc2c(cc1CC)CC(NC[C@H](O)c1ccc(O)c3[nH]c(=O)ccc13)C2"
reported_endpoint = "chromatographic logD"
observed_value = 1.77


Next compound, chromatographic logD to be filled in.
**Query** Find the measured chromatographic logD of `O=c1[nH]c2c(O)ccc([C@@H](O)CN[C@H]3CCC[C@@H]3OCc3ccccc3)c2s1` and report it.
**Result** 1.25
